This collection of values is drawn from patent US9447047B2.

# Tested on: HIV-1
# Test Description: Inhibition of HIV-1 replication
# Assay type: cell-based
# Measurement Setup: Human immunodeficiency virus 1, read-out: 50% Inhibition of HIV-1 replication
Quantity Measured: pIC50
Answers are plain numbers, as −log10 of the molar value.

Inquiry: Complete the entry with pIC50 for `COCCNC(=O)OC(=O)c1c2c(nc3ccccc13)/C(=C\c1ccc(O)cc1)CCC2`
Reply text: 5.00

###

Assign IC50 to each entry below.
# System: HIV-1 transcription in CEM-GFP cells
# Test Description: Tat-dependent HIV-1 transcription LTR-GFP reporter assay in CEM-GFP cells infected with Ad-Tat
# Assay type: cell-based
# Measurement Setup: Human immunodeficiency virus 1, CEM-GFP, 48 h, read-out: Inhibition of HIV-1 Transcription in CEM-GFP cells (IC50, μM)
Entry format: amount then unit.

O=C(CNC(=O)c1ccccc1SCC(=O)NC12CC3CC(CC(C3)C1)C2)Nc1ccc(Cl)cc1 = 5 µM
O=S(=O)(Nc1ccc(S(=O)(=O)N2CCC(Cc3ccccc3)CC2)cn1)c1ccccc1 = 15 µM
CCN(CC)S(=O)(=O)c1ccc2c(c1)nc(CCC(=O)N(C)c1ccc(C(F)(F)F)cc1)n2C = 15 µM
CC(OC(=O)c1ccccc1SCC(=O)Nc1ccc2c(c1)OCO2)C(=O)NCCC1=CCCCC1 (stereo not shown) = 10 µM
COCCNC(=O)OC(=O)c1c2c(nc3ccccc13)/C(=C\c1ccc(O)cc1)CCC2 = 12.5 µM
CN(C1CCCCC1)S(=O)(=O)c1ccc(NC(=O)COc2ccccc2-c2ccccc2)cc1 = 15 µM

Inquiry: Tell me its IC50 on HIV-1 transcription in CEM-GFP cells: CCC(c1nnc(SCC(=O)Nc2ncc(-c3ccc(F)cc3)s2)n1Cc1ccccc1)N(C)C (stereo not shown)
Reply text: 10 µM

###

# Test system: CEM cells
# Test Description: cells
# Measurement Setup: Homo sapiens, CCRF-CEM, read-out: Toxicity in CEM cells, IC50
Quantity Measured: pIC50
Answers are plain numbers, as −log10 of the molar value.

CCNC(=O)NC(=O)C(C)OC(=O)c1c2c(nc3ccccc13)/C(=C\c1cccs1)CCC2 (stereo not drawn) = 5.15

With those in mind, consider the next compound.
Inquiry: Complete the entry with pIC50 for `COCCNC(=O)OC(=O)c1c2c(nc3ccccc13)/C(=C\c1ccc(O)cc1)CCC2`
Reply text: 4.52
